# IC50 per entry for Acetylcholinesterase (Homo sapiens, UniProt P22303)
# answer = value followed by unit

// below: answered compounds
CC(=O)NCCc1c[nH]c2ccc(OC(=O)NCCCCCCCCCCCCNc3c4c(nc5cc(Cl)ccc35)CCCC4)cc12 ... 0.0256 µM
CC(=O)NCCc1c[nH]c2ccc(OC(=O)NCCCCCCCNc3c4c(nc5cc(Cl)ccc35)CCCC4)cc12 ... 0.0077 µM
CC(=O)NCCc1c[nH]c2ccc(OC(=O)NCCCCCCCCCCNc3c4c(nc5cc(Cl)ccc35)CCCC4)cc12 ... 0.0081 µM
CC(=O)NCCc1c[nH]c2ccc(OC(=O)NCCCCCCCNc3c4c(nc5ccc(Cl)cc35)CCCC4)cc12 ... 0.0399 µM
CC(=O)NCCc1c[nH]c2ccc(OC(=O)NCCNc3c4c(nc5ccc(Cl)cc35)CCCC4)cc12 ... 3.28 µM

Lookup: Field request: IC50 | item: CC(=O)NCCc1c[nH]c2ccc(OC(=O)NCCNc3c4c(nc5cc(Cl)ccc35)CCCC4)cc12
Found: 0.0201 µM

* * *

- testedSystem: Cholinesterase (Homo sapiens, UniProt P06276)
- Sequence (P06276 whole entry): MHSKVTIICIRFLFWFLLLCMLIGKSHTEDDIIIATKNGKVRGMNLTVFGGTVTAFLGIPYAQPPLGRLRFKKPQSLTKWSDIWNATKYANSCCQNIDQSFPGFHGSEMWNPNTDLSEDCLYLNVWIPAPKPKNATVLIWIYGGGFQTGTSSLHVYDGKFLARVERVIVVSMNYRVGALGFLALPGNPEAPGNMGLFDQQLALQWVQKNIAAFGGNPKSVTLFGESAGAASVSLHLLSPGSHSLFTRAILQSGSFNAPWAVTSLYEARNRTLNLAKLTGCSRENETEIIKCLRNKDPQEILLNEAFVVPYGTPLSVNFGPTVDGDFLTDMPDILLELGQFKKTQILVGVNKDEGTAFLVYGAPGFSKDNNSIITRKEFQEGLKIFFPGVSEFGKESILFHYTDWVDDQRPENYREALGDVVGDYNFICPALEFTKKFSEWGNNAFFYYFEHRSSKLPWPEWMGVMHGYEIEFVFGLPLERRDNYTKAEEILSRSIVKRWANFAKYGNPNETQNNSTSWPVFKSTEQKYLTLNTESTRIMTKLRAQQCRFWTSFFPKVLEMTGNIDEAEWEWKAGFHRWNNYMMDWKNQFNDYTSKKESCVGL
Listed here: items and their measured IC50.
Provide only the numeric value, understood in nM.

// below: answered molecules
CC(=O)NCCc1c[nH]c2ccc(OC(=O)NCCNc3c4c(nc5ccc(Cl)cc35)CCCC4)cc12 ... 8.2
CC(=O)NCCc1c[nH]c2ccc(OC(=O)NCCCCCCCCCCCCNc3c4c(nc5cc(Cl)ccc35)CCCC4)cc12 ... 1.31
CC(=O)NCCc1c[nH]c2ccc(OC(=O)NCCCCCCCNc3c4c(nc5ccc(Cl)cc35)CCCC4)cc12 ... 0.88
CC(=O)NCCc1c[nH]c2ccc(OC(=O)NCCCCCCCNc3c4c(nc5cc(Cl)ccc35)CCCC4)cc12 ... 0.38
CC(=O)NCCc1c[nH]c2ccc(OC(=O)NCCNc3c4c(nc5cc(Cl)ccc35)CCCC4)cc12 ... 34.5

Turning now to a further molecule:
Lookup: Value wanted: IC50 (Cholinesterase (Homo sapiens, UniProt P06276)) of entry CC(=O)NCCc1c[nH]c2ccc(OC(=O)NCCCCCCCCCCNc3c4c(nc5cc(Cl)ccc35)CCCC4)cc12
Found: 1.2
